Biological target: Human LPA1 (Homo sapiens)
Assay: Beta-Arrestin based assay for human LPA1R antagonists (PathHunter)
Details: CHO cells expressing ProLink tagged human LPA1R; antagonist mode, 0.5 micromolar LPA
pEC50: −log10 of the molar value.
Each entry below carries its recorded pEC50.

# compound, value_observed
records = [
    ("C[C@@H](OC(=O)Nc1ncsc1C#Cc1cc2sc(C3(C(=O)O)CC3)cc2s1)c1ccccc1", "< 6.30"),
]

Query: Report measured pEC50 on Human LPA1 (Homo sapiens); entry: C[C@@H](OC(=O)Nc1c(CCc2cc3sc(C4(C(=O)O)CC4)cc3s2)cnn1C)c1ccccc1
Result: 6.30 to 7.30

====

Biological target: UniProtKB Q92633
Experiment: LPA1 calcium flux assay
Conditions: human LPA1 expressing CHO cells, stimulated with 10 nM LPA; read-out: Ca Flux LPA1 IC50
pIC50: −log10 of the molar value.
property: pIC50

// solved cases for pIC50 follow
# mol, pIC50
data = [
    ("C[C@@H](OC(=O)Nc1c(-c2ccc(-c3ccc(C4(C(=O)O)CC4)cc3)cc2)nc2ncccn12)c1ccccc1", "6.30 to 7.30"),
    ("C[C@@H](OC(=O)Nc1c(-c2ccc(-c3cc4sc(C5(C(=O)O)CC5)cc4s3)cc2)nnn1C)c1ccccc1", "6.30 to 7.30"),
]

Query: Look up pIC50 of CC(=O)N1CCn2c(nc(-c3ccc(-c4ccc(C5(C(=O)O)CC5)cc4)cc3)c2NC(=O)O[C@H](C)c2ccccc2)C1 and report it.
Result: < 6.30

Query: Look up pIC50 of C[C@@H](OC(=O)Nc1c(C#Cc2cc3sc(C4(C(=O)O)CC4)cc3s2)cnn1C)c1ccccc1 and report it.
Result: > 7.30

Query: Look up pIC50 of Cc1nsc(-c2ccc(-c3cc4sc(C5(C(=O)O)CC5)cc4s3)cc2)c1NC(=O)O[C@H](C)c1ccccc1 and report it.
Result: < 6.30

Query: Look up pIC50 of Cc1noc(C#Cc2cc3sc(C4(C(=O)O)CC4)cc3s2)c1NC(=O)O[C@H](C)c1ccccc1Cl and report it.
Result: 6.30 to 7.30

Query: Look up pIC50 of C[C@@H](OC(=O)Nc1c(C#Cc2cc3sc(C4(C(=O)O)CC4)cc3s2)nnn1C)c1ccccc1 and report it.
Result: > 7.30

Query: Look up pIC50 of Cc1nsc(-c2ccc3cc(-c4ccc(C(=O)O)cc4)ccc3c2)c1NC(=O)O[C@H](C)c1ccccc1 and report it.
Result: < 6.30

====

Biological target: UniProt:Q92633
Test: Beta-Arrestin based assay for human LPA1R antagonists (PathHunter)
Settings: CHO cells expressing ProLink tagged human LPA1R; antagonist mode, 0.5 micromolar LPA
pEC50: −log10 of the molar value.
Each entry below carries its recorded pEC50.

# compound, pEC50
measured = [
    ("Cc1noc(C#Cc2cc3sc(C4(C(=O)O)CC4)cc3s2)c1NC(=O)OCc1ccccc1", "> 7.30"),
    ("Cc1nnn(-c2cc(F)c(-c3cc4sc(C5(C(=O)O)CC5)cc4s3)cc2F)c1NC(=O)O[C@H](C)c1ccccc1", "6.30 to 7.30"),
    ("Cc1nsc(C#Cc2cc3sc(C4(C(=O)O)CC4)cc3s2)c1NC(=O)O[C@H](C)c1ccccc1", "> 7.30"),
    ("Cc1nsc(-c2ccc(N3CCC(CC(=O)O)CC3)cc2)c1NC(=O)O[C@H](C)c1ccccc1", "< 6.30"),
    ("Cc1nsc(-c2ccc(-c3ccc(C4(C(=O)O)CC4)cc3)cc2)c1NC(=O)OC(c1ccccc1)C(F)(F)F (single isomer, unassigned) [IT078]", "> 7.30"),
]

Query: Look up pEC50 of Cc1noc(C#Cc2ccc(-c3ccc(C(=O)O)cc3)cc2)c1NC(=O)O[C@H](C)c1ccccc1 and report it.
Result: < 6.30

Query: Look up pEC50 of Cc1nsc(-c2ccc3cc(C4CCC(C(=O)O)CC4)ccc3c2)c1NC(=O)O[C@H](C)c1ccccc1 (some centres unmarked) [IT054] and report it.
Result: < 6.30

Query: Look up pEC50 of C[C@@H](OC(=O)Nc1c(-c2cc(F)c(-c3ccc(C4(C(=O)O)CC4)cc3)cc2F)oc2ccccc12)c1ccccc1 and report it.
Result: > 7.30

Query: Look up pEC50 of Cc1noc(-c2ccc(-c3ccc(C4(C(=O)O)CC4)cc3)cc2)c1NC(=O)O[C@@H]1CCCc2ccccc21 (single isomer, unassigned) and report it.
Result: < 6.30

====

Target: Human LPA1 (Homo sapiens, UniProt Q92633)
Sequence (Q92633 whole entry): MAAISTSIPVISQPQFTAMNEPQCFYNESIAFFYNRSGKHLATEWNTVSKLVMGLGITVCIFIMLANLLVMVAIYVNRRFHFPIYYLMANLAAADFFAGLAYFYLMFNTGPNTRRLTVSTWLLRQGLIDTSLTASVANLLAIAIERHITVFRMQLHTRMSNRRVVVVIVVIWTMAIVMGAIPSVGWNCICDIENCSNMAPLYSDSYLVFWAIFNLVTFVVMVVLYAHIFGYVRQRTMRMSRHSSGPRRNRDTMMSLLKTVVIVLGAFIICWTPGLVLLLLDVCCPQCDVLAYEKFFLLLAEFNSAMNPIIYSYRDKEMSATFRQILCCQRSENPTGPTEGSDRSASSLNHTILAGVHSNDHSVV
Test: Beta-Arrestin based assay for human LPA1R antagonists (PathHunter)
Details: CHO cells expressing ProLink tagged human LPA1R; antagonist mode, 0.5 micromolar LPA
pEC50: −log10 of the molar value.
Each entry below carries its recorded pEC50.

// solved cases for pEC50 follow
# molecule, pEC50
measured = [
    ("C[C@@H](OC(=O)Nc1c(-c2ccc(C#CC3(C(=O)O)CC3)cc2)nnn1C)c1ccccc1", "< 6.30"),
    ("Cc1noc(C#Cc2ccc(CC3(C(=O)O)CC3)cc2)c1NC(=O)O[C@H](C)c1ccccc1 [IT006]", "6.30 to 7.30"),
    ("C[C@@H](OC(=O)Nc1c(C#Cc2cc3sc(C4(C(=O)OCC(=O)N(C)C)CC4)cc3s2)cnn1C)c1ccccc1", "> 7.30"),
    ("CCn1ncc(C#Cc2ccc3cc(C4(C(=O)O)CC4)ccc3c2)c1NC(=O)O[C@H](C)c1ccccc1", "> 7.30"),
    ("Cc1nsc(C#Cc2ccc3c(c2)CCC(C(=O)O)C3)c1NC(=O)O[C@H](C)c1ccccc1 (single isomer, unassigned) [IT062]", "< 6.30"),
    ("Cc1noc(-c2ccc(-c3ccc(C4(C(=O)O)CC4)cc3)cc2)c1NC(=O)OC(C)c1cccc2ocnc12 (single isomer, unassigned) [IT076]", "< 6.30"),
]

Query: Look up pEC50 of C[C@@H](OC(=O)Nc1c(-c2cc(F)c(-c3cc4sc(C5(C(=O)O)CC5)cc4s3)cc2F)nnn1C)c1ccccc1 and report it.
Result: > 7.30

Query: Look up pEC50 of Cc1noc(-c2cc(F)c(-c3ccc(C4(C(=O)O)CCOCC4)cc3)cc2F)c1NC(=O)O[C@H](C)c1ccccc1 [IT029] and report it.
Result: > 7.30

Query: Look up pEC50 of Cc1noc(-c2ccc(-c3ccc(C4(CC(=O)O)CC4)cc3)cc2)c1NC(=O)O[C@H](C)c1ccccc1 and report it.
Result: > 7.30

Query: Look up pEC50 of Cc1nsc(-c2ccc(C34CCC(CC(=O)O)(CC3)CC4)cc2)c1NC(=O)O[C@H](C)c1ccccc1 and report it.
Result: < 6.30

Query: Look up pEC50 of Cc1nsc(C#Cc2ccc3c(c2)CCC(C(=O)O)C3)c1NC(=O)O[C@H](C)c1ccccc1 (single isomer, unassigned) [IT063] and report it.
Result: < 6.30

====

Biological target: Human LPA1 (Homo sapiens, UniProt Q92633)
Test: LPA1 calcium flux assay
Conditions: human LPA1 expressing CHO cells, stimulated with 10 nM LPA; read-out: Ca Flux LPA1 IC50
Each entry below carries its recorded IC50.

# molecule, property, value_observed
measured = [
    ("C[C@@H](OC(=O)Nc1c(-c2ccc(-c3ccc(C4(C(=O)O)CC4)cc3)cc2)nc2n1CCN(S(C)(=O)=O)C2)c1ccccc1", "IC50", "> 500 nM"),
    ("C[C@@H](OC(=O)Nc1c(C2CCC(c3ccc(C4(C(=O)O)CC4)cc3)CC2)cnn1C)c1ccccc1 (some centres unmarked)", "IC50", "50 to 500 nM"),
    ("C[C@@H](OC(=O)Nc1c(-c2ccc(-c3ccc(C4(C(=O)O)CCOCC4)cc3)cc2)ncn1C)c1ccccc1", "IC50", "50 to 500 nM"),
]

Query: Report measured IC50 on Human LPA1 (Homo sapiens, UniProt Q92633); entry: CCOC(=O)N1CCn2c(nc(-c3ccc(-c4ccc(C5(C(=O)O)CC5)cc4)cc3)c2NC(=O)O[C@H](C)c2ccccc2)C1
Result: > 500 nM

Query: Report measured IC50 on Human LPA1 (Homo sapiens, UniProt Q92633); entry: Cc1noc(-c2ccc(-c3ccc4c(C(=O)O)c[nH]c4c3)cc2)c1NC(=O)O[C@H](C)c1ccccc1
Result: > 500 nM

Query: Report measured IC50 on Human LPA1 (Homo sapiens, UniProt Q92633); entry: CCn1ncc(C#Cc2ccc3cc(C4(C(=O)O)CC4)ccc3c2)c1NC(=O)O[C@H](C)c1ccccc1
Result: < 50 nM

====

Target: UniProtKB Q92633
Assay: Beta-Arrestin based assay for human LPA1R antagonists (PathHunter)
Settings: CHO cells expressing ProLink tagged human LPA1R; antagonist mode, 0.5 micromolar LPA
Each entry below carries its recorded EC50.

# compound, value_observed
rows = [
    ("Cc1nsc(-c2ccc3cc(-c4ccc(C(=O)O)cc4)ccc3c2)c1NC(=O)O[C@H](C)c1ccccc1 [IT040]", "> 500 nM"),
    ("Cc1nsc(-c2ccc(C3CCC(C4(C(=O)O)CC4)CC3)cc2)c1NC(=O)O[C@H](C)c1ccccc1 (stereo partly shown) [IT091]", "50 to 500 nM"),
    ("Cc1noc(-c2ccc(-c3ccc(C4(C(=O)O)CCOCC4)cc3)c(F)c2)c1NC(=O)O[C@H](C)c1ccccc1 [IT028]", "< 50 nM"),
]

Query: Look up EC50 of COCC(COC(=O)C1(c2cc3sc(C#Cc4cnn(C)c4NC(=O)O[C@H](C)c4ccccc4)cc3s2)CC1)OC (stereo partly shown) [IT 100] and report it.
Result: < 50 nM

Query: Look up EC50 of Cc1nsc(-c2ccc([C@H]3CC[C@H](C(=O)O)CC3)cc2)c1NC(=O)O[C@H](C)c1ccccc1 [IT008] and report it.
Result: > 500 nM

Query: Look up EC50 of C[C@@H](OC(=O)Nc1c(C#Cc2ccc3cc(C4(C(=O)O)CC4)ccc3c2)cnn1C)c1ccccc1 [IT014] and report it.
Result: < 50 nM

Query: Look up EC50 of C[C@@H](OC(=O)Nc1c(-c2cc(F)c(-c3ccc(C4(C(=O)O)CC4)cc3)cc2F)nn2ncccc12)c1ccccc1 [IT061] and report it.
Result: < 50 nM

All figures here come from patent US20140200215A1.
